Molecular target: Adrenergic receptor alpha-2 (Rattus norvegicus) (UniProt P22086+P19328+P22909)
READOUT NAME: AD50 (mg/kg)
Just the number in mg/kg, nothing appended.

Look up AD50 with Adrenergic receptor alpha-2 (Rattus norvegicus) (UniProt P22086+P19328+P22909) for this compound: "N#Cc1cccnc1N1CCNCC1"
1.07

Could you do the same for "Clc1cccnc1N1CCNCC1" , please?
0.44

Could you do the same for "Fc1cccnc1N1CCNCC1" , please?
0.23

Could you do the same for "COC(=O)[C@H]1[C@H]2C[C@H]3c4[nH]c5ccccc5c4CCN3C[C@H]2CC[C@@H]1O" , please?
1.1

// next entry
Look up AD50 with Adrenergic receptor alpha-2 (Rattus norvegicus) (UniProt P22086+P19328+P22909) for this compound: "CN1CCN(c2ncccc2Cl)CC1"
0.56

----------
Target: Adrenergic receptor alpha-2 (Rattus norvegicus) (UniProt P22086+P19328+P22909)
READOUT NAME: AD50 (mg/kg)
Just the number in mg/kg, nothing appended.

Consider the compound shown here: "COC(=O)[C@@H]1[C@H]2C[C@H]3c4[nH]c5ccccc5c4CCN3C[C@@H]2CC[C@@H]1O" What is its recorded AD50?
1.04

Could you do the same for "Cc1ccnc(N2CCNCC2)c1Cl" , please?
14

Could you do the same for "Brc1cccnc1N1CCNCC1" , please?
0.68

Could you do the same for "O=[N+]([O-])c1cccnc1N1CCNCC1" , please?
1.53

----------
// pA2 lookup, one value per entry
Biological target: Adrenergic receptor alpha-1 (Rattus norvegicus, UniProt P15823+P23944+P43140)
Assay: Presynaptic antagonistic activity against alpha-1 adrenergic receptor from rat, isolated, field-stimulated vas deferens, using methoxamine as the agonist
Assay type: functional
Give a plain numeric answer without units written out.

Look up pA2 with Adrenergic receptor alpha-1 (Rattus norvegicus, UniProt P15823+P23944+P43140) for this compound: "Clc1ccccc1N1CCNCC1"
6.5

Could you do the same for "Ic1cccnc1N1CCNCC1" , please?
6

Could you do the same for "Clc1cccnc1N1CCNCC1" , please?
5.7

Further cases:
Look up pA2 with Adrenergic receptor alpha-1 (Rattus norvegicus, UniProt P15823+P23944+P43140) for this compound: "CN1CCN(c2ncccc2Cl)CC1"
6.5

Could you do the same for "Clc1cccnc1N1CCN(Cc2ccccc2)CC1" , please?
7

----------
Molecular target: UniProt Q28838
Sequence (Q28838 whole entry): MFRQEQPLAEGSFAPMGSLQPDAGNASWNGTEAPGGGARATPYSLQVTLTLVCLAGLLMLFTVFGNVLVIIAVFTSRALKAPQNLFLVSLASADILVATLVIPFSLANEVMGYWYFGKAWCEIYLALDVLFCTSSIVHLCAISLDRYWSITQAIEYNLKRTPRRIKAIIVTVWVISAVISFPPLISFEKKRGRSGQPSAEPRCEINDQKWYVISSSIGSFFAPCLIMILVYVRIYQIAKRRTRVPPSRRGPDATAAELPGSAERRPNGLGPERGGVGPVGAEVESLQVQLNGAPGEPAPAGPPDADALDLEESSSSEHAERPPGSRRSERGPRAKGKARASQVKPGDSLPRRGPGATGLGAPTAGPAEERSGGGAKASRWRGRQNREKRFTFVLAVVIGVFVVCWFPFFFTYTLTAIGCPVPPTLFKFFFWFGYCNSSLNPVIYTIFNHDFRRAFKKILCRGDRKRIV
READOUT NAME: Ki (nM)
Just the number in nM, nothing appended.

Consider the molecule shown here: "Clc1cnc(N2CCNCC2)c(Cl)c1" What is its recorded Ki?
500

Could you do the same for c1ccc2c(c1)OCC(C1=NCCN1)O2 (stereo not drawn) [IDAZOXAN] , please?
1.5

Could you do the same for "CN1CCN(c2ncccc2Cl)CC1" , please?
2.7

----------
Target: Alpha-1A adrenergic receptor (Bos taurus, UniProt P18130)
Sequence (P18130 whole entry): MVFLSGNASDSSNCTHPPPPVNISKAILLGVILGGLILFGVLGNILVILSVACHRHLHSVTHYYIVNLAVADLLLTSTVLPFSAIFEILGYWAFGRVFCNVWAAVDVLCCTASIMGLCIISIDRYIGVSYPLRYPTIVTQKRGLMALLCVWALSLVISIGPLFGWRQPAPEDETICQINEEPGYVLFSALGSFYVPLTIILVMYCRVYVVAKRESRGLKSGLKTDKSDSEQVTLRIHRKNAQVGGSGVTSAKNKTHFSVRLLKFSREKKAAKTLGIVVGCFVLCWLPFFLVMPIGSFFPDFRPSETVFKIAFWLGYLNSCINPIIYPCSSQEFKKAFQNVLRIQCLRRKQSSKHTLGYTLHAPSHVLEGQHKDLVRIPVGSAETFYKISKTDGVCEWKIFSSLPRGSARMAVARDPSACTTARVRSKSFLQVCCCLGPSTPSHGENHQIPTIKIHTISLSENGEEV
// pKi lookup, one value per entry
Give only the number. pKi is defined as minus log10 of concentration in molar units.

Consider the compound shown here: "c1ccc(N2CCNCC2)nc1" What is its recorded pKi?
5.62

Could you do the same for "Clc1ccc(N2CCNCC2)nc1" , please?
6.05

Could you do the same for "CN1CCN(c2ncccc2F)CC1" , please?
6.31

Further cases:
Consider the compound shown here: "O=[N+]([O-])c1cccnc1N1CCNCC1" What is its recorded pKi?
5.42

Could you do the same for "CN1CCN(c2ncccc2Br)CC1" , please?
6.80

Could you do the same for "N#Cc1cccnc1N1CCNCC1" , please?
5.70

Could you do the same for "Brc1cccnc1N1CCNCC1" , please?
5.83

Could you do the same for "Nc1cccnc1N1CCNCC1" , please?
4.51

Could you do the same for "Clc1cccnc1N1CCN(Cc2ccccc2)CC1" , please?
6.15

----------
Assay read-out AD50; system under study: Adrenergic receptor alpha-2 (Rattus norvegicus) (UniProt P22086+P19328+P22909).
Just the number in mg/kg, nothing appended.

Consider the compound shown here: c1ccc2c(c1)OCC(C1=NCCN1)O2 (configuration not stated) What is its recorded AD50?
0.05

// next entry
Consider the compound shown here: "c1ccc(N2CCNCC2)nc1" What is its recorded AD50?
1.28

----------
Molecular target: Alpha-2A adrenergic receptor (Bos taurus, UniProt Q28838)
Sequence (Q28838 whole entry): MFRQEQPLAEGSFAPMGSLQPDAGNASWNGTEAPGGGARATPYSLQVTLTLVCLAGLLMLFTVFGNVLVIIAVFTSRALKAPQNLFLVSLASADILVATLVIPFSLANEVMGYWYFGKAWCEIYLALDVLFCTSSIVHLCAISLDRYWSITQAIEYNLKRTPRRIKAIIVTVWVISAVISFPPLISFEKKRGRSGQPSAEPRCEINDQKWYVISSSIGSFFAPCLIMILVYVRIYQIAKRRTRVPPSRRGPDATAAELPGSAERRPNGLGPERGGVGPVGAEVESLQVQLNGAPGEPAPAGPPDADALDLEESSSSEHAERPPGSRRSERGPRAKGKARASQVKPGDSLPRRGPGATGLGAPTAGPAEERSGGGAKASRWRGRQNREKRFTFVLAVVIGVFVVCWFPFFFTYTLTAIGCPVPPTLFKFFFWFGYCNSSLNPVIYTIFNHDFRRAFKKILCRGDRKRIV
READOUT NAME: pKi
Give only the number. pKi is defined as minus log10 of concentration in molar units.

Consider the molecule shown here: "Cc1ccnc(N2CCNCC2)c1Cl" What is its recorded pKi?
7.13

Could you do the same for "O=[N+]([O-])c1cccnc1N1CCNCC1" , please?
7.59

Further cases:
Consider the molecule shown here: "Clc1cccnc1N1CCN(Cc2ccccc2)CC1" What is its recorded pKi?
6.92

Could you do the same for "Nc1cccnc1N1CCNCC1" , please?
6.36

Could you do the same for "N#Cc1cccnc1N1CCNCC1" , please?
7.85

Could you do the same for "CN1CCN(c2ncccc2F)CC1" , please?
8.30

Could you do the same for "Clc1ccc(N2CCNCC2)nc1" , please?
5.87

Could you do the same for "Fc1cccnc1N1CCNCC1" , please?
8.09

Could you do the same for "Clc1ccccc1N1CCNCC1" , please?
7.60

Could you do the same for "FC(F)(F)c1cccnc1N1CCNCC1" , please?
7.01

----------
Assay read-out AD50; system under study: Adrenergic receptor alpha-2 (Rattus norvegicus) (UniProt P22086+P19328+P22909).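 Further: anesthetized rats, antagonism at central alpha-2 adrenergic receptors read out as reversal of mydriasis induced by clonidine.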
Just the number in mg/kg, nothing appended.

Consider the molecule shown here: "FC(F)(F)c1cccnc1N1CCNCC1" What is its recorded AD50?
3.63

Could you do the same for "Clc1ccccc1N1CCNCC1" , please?
1.03

Could you do the same for "Ic1cccnc1N1CCNCC1" , please?
1.95

Could you do the same for "CN1CCN(c2ncccc2Br)CC1" , please?
0.74

// next entry
Consider the molecule shown here: "CN1CCN(c2ncccc2F)CC1" What is its recorded AD50?
0.67
